Recorded values, source the Immune Epitope Database (IEDB).

# System name: HLA-A*31:01
# Experiment notes: IEDB peptide-MHC binding, purified MHC/competitive/fluorescence; filed as Kd, often an IC50 or EC50 that approximates it; bounds were set here for any values at or beyond the usual limits of such assays
# Condition parameters: source organism: Influenza A virus (A/Fort Monmouth/1/1947-mouse adapted(H1N1))
Readout label: Kd (nM)

INSERT INTO results (sequence, scale_unit, value_reported) VALUES
  ('TTHSWIPKR', 'nM', 2.3);

* * *

# System name: HLA-A*24:03
# Experiment notes: IEDB peptide-MHC binding, purified MHC/competitive/fluorescence; filed as Kd, often an IC50 or EC50 that approximates it; bounds were set here for any values at or beyond the usual limits of such assays
# Condition parameters: source organism: Cryptosporidium parvum Iowa II
pKd: −log10 of the molar value.
Readout label: pKd

INSERT INTO measurements (sequence, value_reported) VALUES
  ('KLYLRPWWH', '≤ 4.70');
